target of assay: Gal(b1-4)GlcNAc(b1-3)[GlcNAc(b1-6)]Gal(b1-4)GlcNAc
experimental protocol: glycan array binding signal (z-score within array); higher = stronger binding
conditions: glycan notation: IUPAC condensed, linker removed
About 410 targets per protein were measured; listed, in parts, are those with the strongest signals and a random draw of the rest.
parameter measured: glycan array binding signal (z-score)

Gal-9-hFc (Mus musculus), O08573-2 (protein) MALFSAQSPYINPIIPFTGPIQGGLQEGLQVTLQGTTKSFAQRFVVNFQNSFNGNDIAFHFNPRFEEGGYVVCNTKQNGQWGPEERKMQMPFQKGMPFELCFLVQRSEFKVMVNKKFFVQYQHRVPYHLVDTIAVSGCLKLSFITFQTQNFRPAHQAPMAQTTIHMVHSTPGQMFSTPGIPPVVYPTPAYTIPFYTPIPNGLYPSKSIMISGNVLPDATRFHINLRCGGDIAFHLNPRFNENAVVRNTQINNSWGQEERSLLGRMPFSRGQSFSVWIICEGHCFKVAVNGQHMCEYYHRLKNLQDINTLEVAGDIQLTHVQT: 2.07

Moving on to the next binder.
Sample MPA (Maclura pomifera), P18674 (protein) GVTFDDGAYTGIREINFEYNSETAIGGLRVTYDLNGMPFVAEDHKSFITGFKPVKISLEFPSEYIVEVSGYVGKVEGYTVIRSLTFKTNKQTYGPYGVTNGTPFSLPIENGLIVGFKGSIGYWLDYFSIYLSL — what was its glycan array binding signal (z-score)? -0.172

Values compiled from the supplement of paper PMC8728848.
